Biological target: PI3Kγ (Homo sapiens (Human))
Sequence (P48736 whole entry, species assumed): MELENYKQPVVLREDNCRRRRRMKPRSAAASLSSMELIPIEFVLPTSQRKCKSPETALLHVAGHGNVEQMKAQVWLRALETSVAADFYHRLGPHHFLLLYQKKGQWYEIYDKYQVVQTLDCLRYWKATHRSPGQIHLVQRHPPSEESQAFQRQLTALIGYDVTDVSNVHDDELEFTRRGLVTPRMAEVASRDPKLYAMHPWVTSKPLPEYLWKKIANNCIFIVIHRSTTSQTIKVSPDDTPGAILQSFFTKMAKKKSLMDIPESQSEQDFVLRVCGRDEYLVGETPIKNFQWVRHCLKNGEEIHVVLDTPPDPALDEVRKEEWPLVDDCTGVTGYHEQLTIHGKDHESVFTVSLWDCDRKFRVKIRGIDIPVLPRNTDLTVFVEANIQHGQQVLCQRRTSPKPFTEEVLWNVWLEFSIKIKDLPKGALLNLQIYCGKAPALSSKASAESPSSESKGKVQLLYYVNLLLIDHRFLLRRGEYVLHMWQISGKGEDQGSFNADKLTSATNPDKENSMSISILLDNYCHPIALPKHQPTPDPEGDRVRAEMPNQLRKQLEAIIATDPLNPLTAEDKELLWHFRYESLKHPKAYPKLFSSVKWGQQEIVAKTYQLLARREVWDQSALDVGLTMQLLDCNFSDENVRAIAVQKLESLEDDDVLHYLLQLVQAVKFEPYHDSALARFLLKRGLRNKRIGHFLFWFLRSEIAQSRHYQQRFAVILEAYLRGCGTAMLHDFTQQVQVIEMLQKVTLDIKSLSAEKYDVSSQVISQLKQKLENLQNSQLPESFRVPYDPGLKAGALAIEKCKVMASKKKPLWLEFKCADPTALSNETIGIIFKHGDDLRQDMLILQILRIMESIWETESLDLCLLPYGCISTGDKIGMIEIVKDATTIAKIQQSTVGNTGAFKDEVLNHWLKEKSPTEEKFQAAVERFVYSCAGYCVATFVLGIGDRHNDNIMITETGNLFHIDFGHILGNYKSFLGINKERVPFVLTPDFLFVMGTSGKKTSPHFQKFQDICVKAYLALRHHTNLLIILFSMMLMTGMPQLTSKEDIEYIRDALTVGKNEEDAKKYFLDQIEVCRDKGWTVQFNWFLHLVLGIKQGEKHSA
Measured IC50 of individual entries

Use the examples below as a reference point.
| SMILES STR | IC50 |
| --- | --- |
| Cn1cc(-c2nc(N3CCOCC3)c3nc(C(=O)NCCCN4CCCC4=O)[nH]c3n2)cn1 | > 1000 nM |
| C[C@@H]1CN(CCCNC(=O)c2nc3c(N4CCOCC4)nc(-c4cnn(C)c4)nc3[nH]2)C[C@H](C)O1 | > 1000 nM |
| Cn1cc(-c2nc3[nH]c(C(=O)N4CCN(C(C)(C)C(N)=O)CC4)nc3c(N3CCOCC3)c2F)cn1 | > 1000 nM |
| Cn1cc(-c2nc(N3CCOCC3)c3nc(C(=O)NCCCN4CCOCC4)n(C)c3n2)cn1 | > 1000 nM |

// field: IC50; key: `Cc1nn(C)cc1-c1nc(N2CCOCC2)c2nc(C(=O)N3CCC(N4CCOCC4)CC3)[nH]c2n1` ; value = 2100 nM

// field: IC50; key: `O=C(c1nc2c(N3CCOCC3)nc(-c3cn[nH]c3)nc2[nH]1)N1CCC2(CC1)COC2` ; value = > 1000 nM

// field: IC50; key: `Cn1cc(-c2nc3[nH]c(C(=O)N4CCC5(CC4)COC5)nc3c(N3CCOCC3)c2F)cn1` ; value = > 1000 nM

// field: IC50; key: `Cc1nn(C)cc1-c1cc(N2CCOCC2)c2nc(C(=O)N3CCC(N4CCOCC4)CC3)[nH]c2n1` ; value = 3030 nM

// field: IC50; key: `Cn1cc(-c2nc(N3CCOCC3)c3nc(C(=O)N4CCC(C(C)(C)O)CC4)[nH]c3n2)cn1` ; value = 584 nM

// field: IC50; key: `Cc1nn(C)cc1-c1nc2c(nc(C(=O)N3CCC(N4CCOCC4)CC3)n2C)c(N2CCOCC2)c1F` ; value = > 10000 nM

// field: IC50; key: `Cc1nn(C)cc1-c1nc2[nH]c(C(=O)N3CCC(C(N)=O)CC3)nc2c(N2CCOCC2)c1F` ; value = > 1000 nM
